experimental.system: monkey GPC3-His protein (monkey)
test.description: ELISA, monkey GPC3-His coated; antibody 0.11 nM
Collected OD450 nm values appear next to each entry.
I only need the number, thanks.

| binder | OD450 nm |
| --- | --- |
| hAb006LH2L1a (antibody, human IgG1, V domains shown) VH: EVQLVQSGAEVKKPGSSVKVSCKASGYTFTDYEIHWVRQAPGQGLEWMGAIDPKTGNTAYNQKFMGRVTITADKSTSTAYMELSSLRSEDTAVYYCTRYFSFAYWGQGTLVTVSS VL: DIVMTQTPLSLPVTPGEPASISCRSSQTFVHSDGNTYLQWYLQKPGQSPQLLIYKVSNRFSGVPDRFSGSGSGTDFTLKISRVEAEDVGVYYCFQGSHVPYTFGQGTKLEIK | 0.137 |
| hAb003LH3L1b (antibody, human IgG1, V domains shown) VH: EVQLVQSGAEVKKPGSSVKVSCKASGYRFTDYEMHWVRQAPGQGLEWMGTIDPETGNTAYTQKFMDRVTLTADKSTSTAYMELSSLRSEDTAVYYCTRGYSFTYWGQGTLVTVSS VL: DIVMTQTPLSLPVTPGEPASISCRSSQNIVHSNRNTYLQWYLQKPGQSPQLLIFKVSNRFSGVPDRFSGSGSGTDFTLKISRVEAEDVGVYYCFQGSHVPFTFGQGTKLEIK | 2.1 |
| hAb003LH2L1 (antibody, human IgG1, V domains shown) VH: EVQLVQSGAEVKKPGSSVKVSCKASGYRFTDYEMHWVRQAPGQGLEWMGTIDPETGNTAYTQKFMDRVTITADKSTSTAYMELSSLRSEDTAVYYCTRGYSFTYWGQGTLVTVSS VL: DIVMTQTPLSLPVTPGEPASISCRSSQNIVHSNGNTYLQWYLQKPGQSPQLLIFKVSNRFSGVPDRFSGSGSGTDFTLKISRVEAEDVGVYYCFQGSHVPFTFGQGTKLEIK | 2.16 |
| hAb007LH1L1a (antibody, human IgG1, V domains shown) VH: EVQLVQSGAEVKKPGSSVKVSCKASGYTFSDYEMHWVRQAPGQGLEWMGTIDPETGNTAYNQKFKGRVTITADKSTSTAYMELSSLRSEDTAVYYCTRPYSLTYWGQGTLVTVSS VL: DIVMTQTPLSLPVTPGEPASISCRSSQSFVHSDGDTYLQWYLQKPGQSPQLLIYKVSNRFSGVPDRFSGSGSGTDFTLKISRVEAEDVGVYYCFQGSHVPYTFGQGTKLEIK | 0.605 |
| hAb005LH3L1b (antibody, human IgG1, V domains shown) VH: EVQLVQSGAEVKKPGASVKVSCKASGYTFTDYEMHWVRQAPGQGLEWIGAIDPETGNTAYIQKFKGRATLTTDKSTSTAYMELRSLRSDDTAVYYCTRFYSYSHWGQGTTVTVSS VL: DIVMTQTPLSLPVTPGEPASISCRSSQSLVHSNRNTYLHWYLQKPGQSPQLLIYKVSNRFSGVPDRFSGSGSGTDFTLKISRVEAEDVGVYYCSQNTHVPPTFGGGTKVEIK | 1.11 |
| hAb003LH3L1 (antibody, human IgG1, V domains shown) VH: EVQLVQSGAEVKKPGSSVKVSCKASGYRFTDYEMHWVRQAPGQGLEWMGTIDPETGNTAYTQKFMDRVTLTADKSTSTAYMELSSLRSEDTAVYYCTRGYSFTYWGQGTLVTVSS VL: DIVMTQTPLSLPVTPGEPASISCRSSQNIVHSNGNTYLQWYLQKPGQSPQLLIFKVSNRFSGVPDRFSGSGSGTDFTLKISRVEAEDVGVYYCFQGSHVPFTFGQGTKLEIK | 1.85 |

Please supply the value of reported OD450 nm for the item hAb003LH1L1a (antibody, human IgG1, V domains shown) VH: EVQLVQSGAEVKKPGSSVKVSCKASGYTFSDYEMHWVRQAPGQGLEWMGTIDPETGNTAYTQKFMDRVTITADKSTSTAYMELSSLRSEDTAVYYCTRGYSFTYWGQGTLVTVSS VL: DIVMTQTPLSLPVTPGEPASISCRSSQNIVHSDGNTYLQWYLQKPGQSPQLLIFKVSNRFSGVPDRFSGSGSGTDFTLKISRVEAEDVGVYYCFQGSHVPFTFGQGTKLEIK
1.48

Hello, the source for this data is patent US20260116991A1, in case you need it.
